TC by entry:
species on record: Rattus norvegicus; experiment: Open TG-GATES - Regimen: Daily Repeat; assay type: toxicity, organism-based, Sprague-Dawley; set-up: regimen Daily Repeat, gender Male, age 6 weeks; conditions: in vivo, po, 100 mg/kg, […], tissue Plasma, route gavage, dose level Low, time 14 day
Kindly provide the numeric value in mg/dL only, without the unit symbol.

Short answer for CCCCNC(=O)NS(=O)(=O)c1ccc(C)cc1 [TOLBUTAMIDE] : TC was 61.6

Short answer for CC(=O)[C@@]1(O)CC[C@H]2[C@@H]3C=C(Cl)C4=CC(=O)CC[C@]4(C)[C@H]3CC[C@@]21C [CHLORMADINONE] : TC was 69.2

Short answer for CC(S)C(=O)NCC(=O)O (centres undefined) [TIOPRONIN] : TC was 65.4

Please find the next compound below.
Short answer for O=C(O)c1ccccc1Nc1ccccc1 [FENAMIC ACID] : TC was 80.8
